- System tested: B1R receptor of the rat (bradykinin 1 receptor) (Rattus norvegicus)
- Construct: host or cells: CHO K1 cells (rB1R cells)
- Sequence (P97583 whole entry): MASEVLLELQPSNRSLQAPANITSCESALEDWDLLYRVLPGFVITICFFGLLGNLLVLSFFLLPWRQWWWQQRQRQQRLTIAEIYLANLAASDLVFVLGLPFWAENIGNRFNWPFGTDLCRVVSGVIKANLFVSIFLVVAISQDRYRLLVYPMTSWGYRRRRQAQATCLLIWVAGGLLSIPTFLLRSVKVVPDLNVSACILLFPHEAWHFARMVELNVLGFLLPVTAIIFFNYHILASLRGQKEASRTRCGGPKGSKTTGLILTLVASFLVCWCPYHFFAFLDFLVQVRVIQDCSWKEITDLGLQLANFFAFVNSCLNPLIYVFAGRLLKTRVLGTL
- Assay overview: FLIPR Ca2+ assay (Fluo-4) on CHO K1 cells stably transfected with the B1R gene of the rat; % activation and % inhibition at 10 μM
- Type: cell-based
- Stated conditions: CHO-K1, test substance 10 μM; CHO K1 rB1R cells; Ca2+ inflow after 100 nM Des-Arg9-bradykinin; read-out: B1R antagonism, rat [10 μM] % inhibition
Where a name gives a salt, the structure may show the parent alone.
Attribute measured: inhibition at 10 µM (%)

Example cases with answers are listed next.
INSERT INTO measurements (compound, reading) VALUES
  ('O=C(COCC1CCCCN1S(=O)(=O)c1ccc(C(F)(F)F)cc1)N1CCC(O)(c2ccc(Cl)cc2)CC1 (stereo not shown) [Example 156]', 70.3),
  ('Cc1cc(S(=O)(=O)N(C)CCOCC(=O)N2CCC(O)(Cc3ccccc3)CC2)c(C)cc1Cl [Example 153]', 69.1),
  ('COc1cc(C)c(S(=O)(=O)N2CCCCC2COCC(=O)N2CCC(O)(c3ccccn3)CC2)c(C)c1 (stereo not shown) [Example 138]', 99.6);

[1] Cc1cc(C)c(S(=O)(=O)N2CCC(OCC(=O)N3CCC(O)(c4ccccn4)CC3)C2)c(C)c1 (stereo not shown) [Example 30]
[2] COc1cc(C)c(S(=O)(=O)N(C)CCOCC(=O)N2CCC(O)(Cc3cccnc3)CC2)c(C)c1 [Example 279, hydrochloride]
[3] O=C(COC1CCCCC1N(Cc1ccccc1)S(=O)(=O)c1ccc(Cl)c(Cl)c1)N1CCC(O)(c2ccc(Cl)cc2)CC1 (stereo not shown) [Example 83]
[4] CN(CCOCC(=O)N1CCC(O)(c2ccccn2)CC1)S(=O)(=O)c1cc(F)ccc1F [Example 71]
Put the compounds in ascending order of inhibition at 10 µM. I'd appreciate it if you listed the labels in the requested order.
3, 4, 1, 2

Cited source: patent US8580965B2
